Biological target: T1, dectin-1 (UniProt Q9BXN2-2 66-201)
T1 construct: also called dec-1
T1 sequence (looked up): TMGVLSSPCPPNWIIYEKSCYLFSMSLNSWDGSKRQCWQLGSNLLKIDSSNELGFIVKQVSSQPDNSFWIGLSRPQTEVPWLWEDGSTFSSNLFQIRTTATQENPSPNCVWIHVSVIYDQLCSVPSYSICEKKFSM
Assay: ELISA
observation.type: binding result

stdin: Data request, read-out binding result, for [change]/[change]/[change] (other) NKTHTCPPCPAPELLGGPSVFLFPPKPKDTLMISRTPEVTCVVVDVSHEDPEVKFNWYVDGVEVHNAKTKPREEQYNSTYRVVSVLTVCLQDWLNGKEYKCKVSNKALPAPIEKTISKAKGQPREPQVYTLPPSREEMTKNQVSLTCLVKGFYPSDIAVEWESNGQPENNYKTTPPVLDSDGSFFLYSKLTVDKSRWQQGNVFSCSVMHEALHNHYTQKSLSLSPGKLVLGPPLYAVSLVMSDTAGTAY
stdout: no binding

stdin: Given [change]/[change]/[change] (other) NKTHTCPPCPAPELLGGPSVFLFPPKPKDTLMISRTPEVTCVVVDVSHEDPEVKFNWYVDGVEVHNAKTKPREEQYASTYRVVSVLTVCLQDWLNGKEYKCKVSNKALPAPIEKTISKAKGQPREPQVYTLPPSREEMTKNQVSLTCLVKGFYPSDIAVEWESNGQPENNYKTTPPVLDSDGSFFLYSKLTVDKSRWQQGNVFSCSVMHEALHNHYTQKSLSLSPGKLVLGPPLYNVSLVMSDTAGTAY , state its recorded binding result.
stdout: no binding
